Form field: melting point (one value per entry).

Examples from the recorded data:
COMPOUND: O=C1N=C(N2CCCC2)S/C1=C\c1ccc(-c2cc(F)c(O)c(C34CC5CC(CC(C5)C3)C4)c2)s1 [Compound 59]
ENDPOINT VALUE: 312 to 315 °C

COMPOUND: O=C1N=C(N2CCOCC2)S/C1=C\c1cc(-c2ccc(O)c(C34CC5CC(CC(C5)C3)C4)c2)c(O)cc1O [Compound 104]
ENDPOINT VALUE: 306 to 310 °C

COMPOUND: O=C1N=C(N2CCN(c3cccc(C(F)(F)F)c3)CC2)S/C1=C\c1cccc(-c2cc(F)c(O)c(C34CC5CC(CC(C5)C3)C4)c2)c1 [Compound 19]
ENDPOINT VALUE: 291 to 293 °C

COMPOUND: O=C1N=C(N2CCCCC2)S/C1=C\c1cccc(-c2ccc(O)c(C34CC5CC(CC(C5)C3)C4)c2)c1 [Compound 3]
ENDPOINT VALUE: 311 to 312 °C

COMPOUND: O=C1N=C(N2CCCCC2)S/C1=C\c1cccc(-c2ccc(O)c(C(=O)c3ccccc3)c2)c1 [Compound 26]
ENDPOINT VALUE: 135 to 138 °C

COMPOUND: O=C1N=C(N2CCOCC2)SC1Cc1cccc(-c2cc(F)c(O)c(C34CC5CC(CC(C5)C3)C4)c2)c1 (stereo not shown) [Compound 43]
ENDPOINT VALUE: 227 to 229 °C

Let us move to another entry and its melting point.
Data request: State the recorded melting point for this entry: O=C1N=C(N2CCC[C@H]2C(=O)O)S/C1=C\c1cccc(-c2cc(F)c(O)c(C34CC5CC(CC(C5)C3)C4)c2)c1 [Compound 53]
Data returned: 195 to 198 °C
